The values you see were collected from the supplement of paper PMC9112550.

- Tested on: Escherichia coli TOP10
- protocol text: shrunken log2 fold change of peptide-encoding DNA abundance (4.5 h post-induction vs induction); higher = less antimicrobial activity (less host growth inhibition)
- assay setup: time post-induction: 4.5 h; library: site-saturation at positions 5, 18, 19, 20
This listing pairs sequences with measured shrunken log2 fold change.

# seq, shrunken log2 fold change
data = [
    ("RRIRLRPPRLPRPRPRPMTQPRP", 0.162),
    ("RRIRYRPPRLPRPRPRPTQYPRP", -0.531),
    ("RRIRVRPPRLPRPRPRPTDCPRP", -0.184),
]

----------
- Test system: Escherichia coli TOP10;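 further: peptides expressed intracellularly from a pBAD plasmid library in pooled LB shake-flask culture, induced with 0.3% L-arabinose, DNA abundance read by NGS, three biological replicates, DESeq2 with apeglm shrinkage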
- protocol text: shrunken log2 fold change of peptide-encoding DNA abundance (4.5 h post-induction vs induction); higher = less antimicrobial activity (less host growth inhibition)
- assay setup: time post-induction: 4.5 h; library: site-saturation at positions 5, 18, 19, 20
Assign True to entries whose shrunken log2 fold change meets or exceeds 0.1; assign False to the rest.

# seq, tested on, label class
measured = [
    ("RRIRQRPPRLPRPRPRPQYRPRP", "Escherichia coli TOP10", "False"),
    ("RRIRGRPPRLPRPRPRPAWIPRP", "Escherichia coli TOP10", "True"),
    ("RRIRCRPPRLPRPRPRPFCRPRP", "Escherichia coli TOP10", "False"),
    ("RRIRKRPPRLPRPRPRPCREPRP", "Escherichia coli TOP10", "True"),
    ("RRIRKRPPRLPRPRPRPCTGPRP", "Escherichia coli TOP10", "False"),
    ("RRIRARPPRLPRPRPRPEDAPRP", "Escherichia coli TOP10", "True"),
    ("RRIRTRPPRLPRPRPRPSCIPRP", "Escherichia coli TOP10", "False"),
    ("RRIRIRPPRLPRPRPRPHEGPRP", "Escherichia coli TOP10", "False"),
    ("RRIRDRPPRLPRPRPRPRDRPRP", "Escherichia coli TOP10", "True"),
    ("RRIRLRPPRLPRPRPRPMAPPRP", "Escherichia coli TOP10", "True"),
    ("RRIRHRPPRLPRPRPRPKYEPRP", "Escherichia coli TOP10", "False"),
    ("RRIRDRPPRLPRPRPRPTARPRP", "Escherichia coli TOP10", "True"),
    ("RRIRSRPPRLPRPRPRPHWEPRP", "Escherichia coli TOP10", "False"),
    ("RRIRERPPRLPRPRPRPACQPRP", "Escherichia coli TOP10", "True"),
    ("RRIRVRPPRLPRPRPRPHEIPRP", "Escherichia coli TOP10", "False"),
    ("RRIRARPPRLPRPRPRPVEMPRP", "Escherichia coli TOP10", "True"),
    ("RRIRTRPPRLPRPRPRPLCRPRP", "Escherichia coli TOP10", "False"),
    ("RRIRFRPPRLPRPRPRPMSNPRP", "Escherichia coli TOP10", "False"),
    ("RRIRERPPRLPRPRPRPMHEPRP", "Escherichia coli TOP10", "False"),
]
